TARGET ENTITY: T1, SARS-CoV-2 receptor-binding domain (RBD), S protein residues 319-539 (SARS-CoV-2, UniProt P0DTC2 319-539)
T1 construct: also called WT RBD; SARS-COV-2 RBD
EXPERIMENTAL PROTOCOL: ELISA on coated RBD
# EC50 values compiled below

# BINDER, EC50
data = [
    ("C901 (antibody, V domains shown) VH: QVQLVESGGGVVQPGRSLRIACGASGFTFSTYDMHWVRQAPVKGLEWVAVISRDGSGKFYADSVKGRFTISRDNSKKTLYLQMDSLRPEDTAMYYCARDFESRTWDPPKYYYALDVWGQGTTVTVSS VL: DIQMTQSPSSLSASVGDRVTITCRASQSISTYLNWYQQKPGKAPSLLIYAASSLYSGVPSRFSGSGSGTDFSLTISSLQPEDFATYYCQQTYTTPTWTFGQGTKVEIK", "2.16 ng/mL"),
    ("C887 (antibody, V domains shown) VH: EVQLVESGGDLVQPGGSLRLSCAASGFTFTTYSMSWVRQAPGKGLEWISYINSGSANIHYADSVKGRFTVSRDNAKNSLYLQMNSLRDEDTAVYYCARGDCLSSSCYSLDYWGQGALVTVSS VL: DIQMTQSPSSLSASVGDRVTITCRASQSITSYLSWYLQKPGEAPKLLIYAASILQSGVPSRFGGNGSGTDFTLTISSLQPEDFATFYCQQTYRSPLTFGGGTKVEIK", "2.53 ng/mL"),
    ("C845 (antibody, V domains shown) VH: QVQLQESGPGLVKPSQTLSLTCTVSGASISSGEYYWSWVRQPPGKGLEWVGYIYYSGSTYYNPSLKSRVTISVDTSKNHFSLKLKSLTAADTAVYFCATGGLSAFGELFPHDKWGQGTLVTVSS VL: EIVLTQSPATLSLSPGERATLSCRASQSVGSDLAWYQQKPGQAPRLLIYDTSNRATGIPARFSGSGSGTDFTLTISSLDPADFAVYYCQQRTNWLFSFGPGTKVDIK", "1.39 ng/mL"),
]
